- EXPERIMENTAL TARGET: myo1C (myosin-1C; myo61F) (Drosophila melanogaster, UniProt Q23979)
- TEST CONDITIONS: read-out: Myo1C; rapid-equilibrium binding step to actomyosin (printed in μM, used as association constant in Equation 2); KMg25 pH 7.0, 1 mM MgCl2; 20 C
PROPERTY LABEL: Kd (µM)

MOLECULE | EXPERIMENTAL TARGET | UNIT LABEL | RESULT
Nc1ncnc2c1ncn2[C@@H]1O[C@H](COP(=O)(O)OP(=O)(O)OP(=O)(O)O)[C@@H](O)[C@H]1O [MgATP] | myo1C (myosin-1C; myo61F) (Drosophila melanogaster, UniProt Q23979) | µM | 73
